target: ALDH1A3; assay: pooled miR-30 sensor sort-seq; sequence = guide strand; conditions: shRNA; note: reference of the scale not given here
Response key: satisfied means sensor-assay potency score (higher = more potent) >= -0.1; not satisfied means sensor-assay potency score (higher = more potent) < -0.1.

- TTCTTCGATACTTTTGAACTTC: satisfied
- TTGTTGATAAATATCTTGGTGA: satisfied
- TTTCCTGACATTTTAAAGCCAC: not satisfied
- TTTATCACTTCTTCGATACTTT: not satisfied
- TTTCTTGGCATACTCCACGCTC: not satisfied
- TATCTTGGTGAACTTGACCTCC: satisfied
- TTCCACTTCACATATTTGCTCC: not satisfied
- TTTTGTCGAACTGCTTTTGATC: not satisfied

Source listed as the OligoGym collection.
